Every entry's value here was drawn from paper PMC11845477.

Test system: E. coli ATCC 25922 (SEN) and E. coli NCTC13846 (MDR)
Assay notes: Adaptive laboratory evolution (ALE), relative MIC of evolved lines
Type: cell-based, Escherichia coli
Stated conditions: Escherichia coli ATCC 25922 (EC-SEN), evolved line 2
Where a SMILES comes first, the peptide text is derived from it. Bridges are numbered along the chain shown (N, C = ends). [ ]: non-standard residue; d: D form. The star is where a group is joined. X1 = NC[C@@H](CC(=O)*)c1cccc(Cl)c1; Dab = NCC[C@H](N)C(=O)O; Dap = NC[C@H](N)C(=O)O
Recorded endpoint: Relative MIC
Could you keep your reply to the number by itself?

Request: What does the record list as Relative MIC for CC(C)c1ccc(Cn2ccc3c4c(N)nc(NC5CC5)nc4ccc32)cc1 ?
Response: 4

Request: Then this molecule: C[C@@H]1CN2c3c(cc4c(N5C(=O)OC[C@@H]5C)noc4c3F)CC3(C(=O)NC(=O)NC3=O)[C@H]2[C@H](C)O1
Response: 8

Request: Then this molecule: CC(C)C[C@@H]1NC(=O)[C@@H](Cc2ccccc2)NC(=O)[C@H](CCN)NC(=O)[C@@H](NC(=O)[C@H](CN)NC(=O)[C@@H](NC(=O)C[C@H](CN)c2cccc(Cl)c2)[C@@H](C)O)CCNC(=O)[C@H]([C@@H](C)O)NC(=O)[C@H](CCN)NC(=O)[C@H](CCN)NC1=O [SPR206] (X1-T[Dap][Dab][Dab][dF]L[Dab][Dab]T; lactam 3-C (inferred); N-terminus assumed)
Response: 256

Request: Then this molecule: CNC(C)C1CCC(N)C(OC2C(N)CC(N)C(OC3OCC(C)(O)C(NC)C3O)C2O)O1 (stereo not shown)
Response: 32

----------
Tested on: A. baumannii ATCC 17978 (SEN) and A. baumannii ATCC BAA-1605 (MDR)
Assay notes: microbe, parasite or virus in culture
Format: cell-based, Acinetobacter baumannii
Stated conditions: Acinetobacter baumannii ATCC 17978 (AB-SEN), ancestor strain; sheet fig 2a
Where a SMILES comes first, the peptide text is derived from it. Bridges are numbered along the chain shown (N, C = ends). [ ]: non-standard residue; d: D form. The star is where a group is joined. X1 = NC[C@@H](CC(=O)*)c1cccc(Cl)c1; Dab = NCC[C@H](N)C(=O)O; Dap = NC[C@H](N)C(=O)O
Recorded endpoint: MIC of ancestor (µg/mL)
Your answer is read as µg/mL, so omit the unit and give the number.

Request: What does the record list as MIC of ancestor for C[C@@H](O)[C@H]1C(=O)N2C(C(=O)O)=C(S[C@H]3CC[S@@+]([O-])C3)S[C@H]12 ?
Response: 1

Request: Then this molecule: CC(C)C[C@@H]1NC(=O)[C@@H](Cc2ccccc2)NC(=O)[C@H](CCN)NC(=O)[C@@H](NC(=O)[C@H](CN)NC(=O)[C@@H](NC(=O)C[C@H](CN)c2cccc(Cl)c2)[C@@H](C)O)CCNC(=O)[C@H]([C@@H](C)O)NC(=O)[C@H](CCN)NC(=O)[C@H](CCN)NC1=O [SPR206] (X1-T[Dap][Dab][Dab][dF]L[Dab][Dab]T; lactam 3-C (inferred); N-terminus assumed)
Response: 0.125

Request: Then this molecule: CN[C@@H]1[C@@H](O[C@H]2O[C@H](CO)[C@@H](N)[C@H](O)[C@H]2O)OC2C[C@@H](N)[C@@H](O[C@H]3[C@H](O)[C@@H](O)[C@H](N)C[C@@H]3N)OC2[C@@H]1O (stereo partly shown)
Response: 4

Request: Then this molecule: CNC(C)C1CCC(N)C(OC2C(N)CC(N)C(OC3OCC(C)(O)C(NC)C3O)C2O)O1 (stereo not shown)
Response: 0.5
